Provide the recorded Herbicidal action against SETVI for the entries that follow.
- Tested on: Setaria viridis
- assay.notes: Post-emergence herbicidal action, SETVI
- Assay type: in vivo
- Parameters: key: % herbicidal action vs untreated; 100 = plants died, 0 = like control
- condition.label: post-emergence, dosage 80 g/ha
In your answer, state the number alone without any accompanying words.

Q) Give Herbicidal action against SETVI for the following molecule: CCCn1nnnc1NC(=O)c1ccc(C(F)F)c(CS(C)(=O)=O)c1C [Example 3-109]
A) 90

Q) Provide Herbicidal action against SETVI value for the following molecule: CCn1nnnc1NC(=O)c1ccc(I)c(CSC)c1Cl [Example 2-362]
A) 90

Q) State its Herbicidal action against SETVI for this molecule: CSCc1c(S(C)(=O)=O)ccc(C(=O)Nc2nnnn2C)c1Cl [Example 1-278]
A) 100

Q) Quickly give me recorded Herbicidal action against SETVI for COc1c(C(=O)Nc2nnnn2C)ccc(C(F)(F)F)c1CSC [Example 1-134]
A) 100

Q) Query Herbicidal action against SETVI for Cn1nnnc1NC(=O)c1ccc(C(F)(F)F)c(CS(=O)(=O)CC(F)(F)F)c1Cl [Example 1-313]
A) 80

Q) Fill in reported Herbicidal action against SETVI for this entry: COc1c(C(=O)Nc2nnnn2C)ccc(C(F)(F)F)c1CS(C)(=O)=O [Example 1-136]
A) 90

Q) Please give measured Herbicidal action against SETVI of the following entry: CCn1nnnc1NC(=O)c1ccc(C)c(CS(C)(=O)=O)c1Cl [Example 2-289]
A) 100

Q) Give Herbicidal action against SETVI for the following molecule: CCCn1nnnc1NC(=O)c1ccc(S(C)(=O)=O)c(C[S+](C)[O-])c1C (centres unmarked) [Example 3-38]
A) 80

Q) Give the value of Herbicidal action against SETVI reported for the following: CCn1nnnc1NC(=O)c1ccc(S(C)(=O)=O)c(CS(C)(=O)=O)c1Cl [Example 2-280]
A) 80

Q) Specify measured Herbicidal action against SETVI for COc1c(C(=O)Nc2nnnn2C)ccc(Cl)c1CS(C)(=O)=O [Example 1-572] .
A) 80

Q) Entry COc1c(C(=O)Nc2nnnn2C)ccc(Cl)c1CSC [Example 1-570] needs its Herbicidal action against SETVI filled in; supply it.
A) 80

* * *

- System: Echinochloa crus-galli
- assay.notes: Post-emergence herbicidal action, ECHCG
- Format: in vivo
- Parameters: key: % herbicidal action vs untreated; 100 = plants died, 0 = like control
- condition.label: post-emergence, dosage 80 g/ha
property: Herbicidal action against ECHCG
// print number alone

Q) Please report Herbicidal action against ECHCG for the following compound: `Cn1nnnc1NC(=O)c1ccc(C(F)(F)F)c(CS(C)(=O)=O)c1S(C)(=O)=O`
A) 80

Q) Consider the compound `CCCn1nnnc1NC(=O)c1ccc(C(F)(F)F)c(CS(C)(=O)=O)c1S(C)(=O)=O` and give its recorded Herbicidal action against ECHCG.
A) 80

Q) Give a short answer stating reported Herbicidal action against ECHCG for `COc1c(C(=O)Nc2nnnn2C)ccc(Cl)c1CS(C)(=O)=O` .
A) 90

Q) Give recorded Herbicidal action against ECHCG. Cc1c(C(=O)Nc2nnnn2C)ccc(S(C)(=O)=O)c1C[S+](C)[O-] (stereo not shown)
A) 90

* * *

- System: Stellaria media
- assay.notes: Pre-emergence herbicidal action, STEME
- Assay type: in vivo
- condition.label: dosage 320 g/ha, scored visually after 3 weeks vs untreated controls (100% = plants have died)
- From the text: 1. Pre-Emergence Herbicidal Action Against Harmful Plants Seeds of monocotyledonous and dicotyledonous weed plants and crop plants are laid out in sandy loam soil in wood-fiber pots and covered with soil. […] The damage to the test plants is scored visually after a test period of 3 weeks by comparison with untreated controls (herbicidal activity in percent (%): 100% activity=the plants have died, 0% activity=like control plants). […]
Field: herbicidal activity STEME. Provide a value for each of the molecules that follow.
The reply should consist of the numeric value with the unit placed after it.

Q) Find the measured herbicidal activity STEME of `CCn1nnnc1NC(=O)c1ccc(C(F)(F)F)c(CS(C)(=O)=O)c1Br` and report it.
A) 90%

Q) Let me know recorded herbicidal activity STEME for `Cn1nnnc1NC(=O)c1ccc(C(F)F)c(CS(C)(=O)=O)c1Cl` , thanks.
A) 100%

Q) Give me measured herbicidal activity STEME, please, for this molecule: `CCSCc1c(C(F)(F)F)ccc(C(=O)Nc2nnnn2C)c1SCC`
A) 90%

Q) Give the reported herbicidal activity STEME for this molecule. `CCn1nnnc1NC(=O)c1ccc(I)c(CSC)c1Cl`
A) 100%

Q) Give me measured herbicidal activity STEME, please, for this molecule: `Cn1nnnc1NC(=O)c1ccc(C(F)(F)F)c(CS(=O)(=O)C2CC2)c1Cl`
A) 100%
